assay: reversal of MRP1-mediated doxorubicin resistance, pilot screen, H69AR cells, doxorubicin co-treatment (AID 601); details: H69AR cells + 2 uM doxorubicin, CellTiter-Glo, 72 h; at 10 µM; stronger effect = higher value
Active and inactive are the calls of the source.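 Rule for the calls: active = viability loss from added drug above about 55%, and viability with drug at most 40%, in both replicates (limit read from the data, passing the limit was not always enough); inconclusive = both conditions met in only one replicate; inactive = neither replicate meets both conditions.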
assay-endpoint: differential viability (reversal)

Nc1nonc1-c1noc(-c2ccccc2Br)n1; 3.17% (inactive)
COc1ccccc1-n1nnnc1SCc1cc2c(cc1Br)OCO2; -4.98% (inactive)
CCOC(=O)C1CCN(CC(=O)c2c(C)[nH]c3ccccc23)CC1; 0.74% (inactive)
c1ccc(Cn2nnnc2C(c2cccs2)N2CCSCC2)cc1 (stereo unspecified); -2.6% (inactive)
Cn1cnc2c1c(=O)[nH]c(=O)n2C; -0.7% (inactive)
O=C1CC(C(=O)Nc2ccc(Br)cc2)C2(CCCC2)O1 (stereo unspecified); 8.19% (inactive)
CCCCOc1ccc(N(CC(=O)NC2CCCC2)C(=O)CCC(=O)Nc2ccccn2)cc1; 5% (inactive)
COc1cc2c(cc1NCc1ccccn1)oc1ccccc12; -10.3% (inactive)
CC(=O)OCC(=O)[C@H]1CC[C@H]2[C@@H]3CC=C4C[C@@H](O)CC[C@]4(C)[C@H]3CC[C@]12C; 4.54% (inactive)
COCCCC/C(=N\OCCN)c1ccc(C(F)(F)F)cc1; 20% (inactive)
COC(=O)C1=C(N)Oc2cc(C)n(Cc3ccncc3)c(=O)c2C1c1cccnc1 (stereo unspecified); 3.73% (inactive)

---

Listing of recorded inhibition by entry.
assay: 384-well plate pilot, post-Golgi transport modulator project, inhibition of yeast transport mutant growth (AID 636); conditions: absorbance 615 nm, about 18 h, stronger effect = higher value
assay-endpoint: inhibition (%)

Cc1ccc2nc(NC(=O)C3CCCN(S(=O)(=O)c4cccc5nonc45)C3)sc2c1 (centres undefined); -4.34
CCOc1ccc2c(c1)n(CO)c(=S)n2CO; -2.53
Cc1ccc(S(=O)(=O)Cn2nnnc2CN(Cc2ccco2)Cc2cccs2)cc1; -5.87
CS(=O)(=O)N(CC(=O)NCc1ccncc1)Cc1ccc(Cl)cc1; -8.36
Cc1oc(-c2ccc(Cl)cc2)cc1-c1nn2c(-c3ccoc3C)nnc2s1; 18.9
CCOC(=O)CSc1nc2sc(C)c(C)c2c(=O)[nH]1; -4.79
COc1ccccc1-n1c(SCC(=O)Nc2ccc3c(c2)OCO3)nc2c(c1=O)SCC2; -0.55
CSc1ccccc1C(=O)NC1CC2CCC1C2 (centres undefined); -5.33
Cn1cccc1-c1nc2ccc(NC(=O)c3ccco3)cc2[nH]1; -2.76
CCOC(=O)C(C)C1(O)c2ccccc2-c2ncccc21 (centres undefined); -5.81
Cc1cccc(NC(=O)c2cc3ccccc3o2)c1; -7.4
Nc1cc(N)nc(SCc2ccccc2)n1; -0.68
O=C(NCCN1CCCCC1)c1ccc(=O)oc1; -8.03
CCCCOC(=O)CSc1nc2c(cc1C#N)C(=O)CC(C)(C)C2; -5.13
Cc1csc(NC(=O)C2CCCO2)n1 (centres undefined); -4.16
COc1ccc(-c2nsc(SCC(=O)Nc3cc(C)on3)n2)cc1; -5.07
Cc1ccc(Cn2nnc3c(=O)[nH]c(C4CCN(S(=O)(=O)c5ccc(F)cc5)CC4)nc32)cc1; -1.73
COC(=O)C1C2C=CC3(CN(CC4CCCO4)C(=O)C13)O2 (centres undefined); -6.99
CCOc1ccccc1OCCCCN1CCCC1; -2.21
CCCCN1CN(S(=O)(=O)c2cccs2)c2nc3ccccc3nc21; -10.1
CN1CCN(c2ccc(Cl)cc2NC(=O)c2cccc(S(=O)(=O)N(C)C)c2)CC1; -5.47
CC(C)[C@H](NC(=O)NCc1ccc(Cl)cc1)C(=O)O; -4
CCN(CC(=O)Nc1ccc2c(c1)OCCO2)Cc1cc(=O)oc2cc(C)c(C)cc12; -5.75
O=C(CSc1nnc(-c2ccccc2Br)o1)Nc1cccc2ccccc12; 0.39

---

assay: growth inhibitors of H69AR lung tumor, primary screen, human, duplicate replicates (AID 580); conditions: H69AR lung tumor cells viability, ATP luminescence, 72 h; at 10 µM; stronger effect = lower value;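 note: 100% = mean luminescence of untreated wells and 0% = no signal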
Hi! Just check whether viability is below 90%. Below gives true, equal or above gives false.

CCCC(CCC)n1[nH]c(=O)c2c(C)cc(C)nc21; false
Cc1cccc(N2C(=O)CC(N(C(=O)c3ccco3)c3cccc(C)c3)C2=O)c1 (stereo not given); false
CC(C)C1N=C2c3ccccc3N=C(SCC(=O)NCCc3ccc(S(N)(=O)=O)cc3)N2C1=O (stereo not given); true
COc1ccc(-c2nn3c(-c4cccc(C)c4)nnc3s2)cc1OC; true
COc1ccc(N2CCN(C(=O)CN3C(=O)C4CC=CCC4C3=O)CC2)cc1 (stereo not given); false
C/C(=N\O)C(=O)C(CN1CCCCC1)CN1CCCCC1; true
COc1ccc(OC)c(S(=O)(=O)Nc2ccc(O)c3ccccc23)c1; true
O=C(CN(Cc1ccco1)C(=O)c1cc(=O)[nH]c2ccccc12)Nc1ccccc1Br; true
O=C1OC(N2CCN(c3ccccn3)CC2)c2ccccc21 (stereo not given); false
Cc1cc(NS(=O)(=O)Cc2ccccc2)cc(C)c1OCC(=O)N1CCOCC1; false
CSc1nnc(-c2ccccc2)n1C; false
Cc1ccc(OCC(=O)N2CCN(C(=O)CCC3CCCC3)CC2)cc1; true
COc1ccc(N2CCN(C(=O)CSc3ncnc4c3cnn4-c3ccccc3C)CC2)cc1; true
COC(=O)Cn1c(=O)c2c(nc(Br)n2CC(=O)OC)n(C)c1=O; true
CCOc1ccccc1N1CC(O)=C(c2nc3ccccc3s2)C1=N; true
Cc1ccc(C2/C(=C(/O)c3cnn(-c4ccccc4)c3C)C(=O)C(=O)N2CCN2CCOCC2)o1 (stereo not given); true
Cc1nc2ccccc2nc1OCC(=O)Nc1cc(C(F)(F)F)ccc1N1CCOCC1; false
C=CCn1c(SCC(=O)NCC2CCCO2)nc2scc(-c3ccco3)c2c1=O (stereo not given); false
CCOc1ccc(OCC)c(NC(=O)C2CCN(c3ncccn3)CC2)c1; true
Cc1cccc(NC(=O)c2cc3ccccc3o2)c1; true
COC(=O)c1cc(Br)c(=O)n(CCc2ccc(F)cc2)c1; false
CCOC(=O)c1cc2c(=O)n3cccc(C)c3nc2n(CC2CCCO2)c1=NC(C)=O (stereo not given); true
Cn1c(=O)[nH]c(=O)c2c1ncn2CCN1CCOCC1; false
C=CCn1c(SCc2ccc3nonc3c2)nnc1-c1cccs1; true
O=C(CN(c1ccc(F)cc1)S(=O)(=O)c1ccc2c(c1)OCCO2)NCC1CCCO1 (stereo not given); false
Cc1ccc(NC(=O)COC(=O)c2ccn(C)n2)cc1; true
C[N+](C)(C)CCOP(=O)([O-])OC[C@H](O)CO; false
Cn1c(=O)[nH]c(=O)c2c1nc(Br)n2Cc1ccccc1F; true
Cc1nc(NC2=NCN(CCCN3CCOCC3)CN2)nc2c(C)cccc12; true
O=C(CN(CC1CCCO1)S(=O)(=O)c1ccc(S(=O)(=O)NC2CC2)cc1)Nc1ccccc1 (stereo not given); false
Cc1cc2ccccc2c(=O)n1CC(=O)N(C)c1ccc(F)cc1; false
Cn1c(=O)c2c(nc(NCCNC(=O)c3ccco3)n2Cc2ccccc2Cl)n(C)c1=O; true
COc1ccc(Br)cc1-c1noc(-c2ccccc2)n1; true

---

experiment: SK-BR-3 cell growth inhibitors, pilot screen, 24 h, human (AID 572); conditions: SK-BR-3 viability, CellTiter-Glo luminescence, at 10 µM, stronger effect = lower value;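 note: compound exposure lasted between 18 and 24 h rather than exactly 24 h; 100% = carrier-treated control wells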
Activity calls are given as the source filed them.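 The calls were made as follows: active = viability at or below 10% of carrier control in both of two separate runs; inconclusive = viability at or below 10% in only one of the two runs; inactive = the rest.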
assay-endpoint: viability

O=C(CSc1ncn[nH]1)NC1CC2CCC1C2 (stereo not drawn); 94% (inactive)
CCOc1ccc(OCC)c(NC(=O)C2CCN(S(=O)(=O)c3cnc[nH]3)CC2)c1; 95.5% (inactive)
Cc1ccc(-c2nnc(-c3ccc(Br)cc3)o2)o1; 100% (inactive)
C=CCSc1nc2c(c(=O)[nH]c(=O)n2C)n1CC; 78.5% (inactive)
Cc1cc(C)n(-c2nc3sc4c(c3c3nnc(SC(C)C)n23)CC(C)(C)OC4)n1; 96% (inactive)
CC(=O)C1=C(C)OC(N)=C(C#N)C1c1ccncc1 (stereo not drawn); 133% (inactive)
CC1CN(S(=O)(=O)c2ccc(Cl)c(C(F)(F)F)c2)CC(C)O1 (stereo not drawn); 68% (inactive)
COC(=O)c1ccc(Oc2nc(NC(C)C)nc(N(C)C)n2)cc1; 102% (inactive)
COC(=O)CCn1nnc(-c2ccc(C)cc2)n1; 90% (inactive)
COc1ccc(Cl)cc1NC(=O)COc1cccc(-n2cnnn2)c1; 110% (inactive)
Cc1nc2oc3c(NCc4ccccn4)ncnc3c2c2c1COC(C)(C)C2; 90% (inactive)
CCCc1cc(-n2ccnc2)n2c(nc3ccccc32)c1C#N; 89.5% (inactive)
O=C(Nc1cnn(C23CC4CC(CC(C4)C2)C3)c1)c1cnn2c(C(F)(F)F)cc(-c3ccco3)nc12; 95% (inactive)
COc1ccc(C(O)Cn2c(=N)n(CCCN(C)C)c3ccccc32)cc1 (stereo not drawn); 78.5% (inactive)
CCOC(=O)C1CCCN(C(=O)c2sc3nc(-c4ccccc4)cn3c2C)C1 (stereo not drawn); 112% (inactive)
O=C(O)c1ccccc1Nc1cccc(C(F)(F)F)c1; 135% (inactive)
COc1ccc(NC(=O)N2CCC(c3nc(-c4cccs4)no3)CC2)cc1; 121% (inactive)
COc1ccc(-n2c(SCC(N)=O)nc3sc4c(c3c2=O)CCN(C)C4)cc1; 126% (inactive)
C=CCn1c(=O)c2ccccc2n2c(SC(C)C(=O)Nc3nc(-c4ccccc4)cs3)nnc12 (stereo not drawn); 66% (inactive)
O=C(CCSc1ccccc1)Nc1ccc(S(=O)(=O)N2CCOCC2)cc1; 102% (inactive)
c1ccc2c(c1)nc(-c1ccncc1)n1nnnc21; 96.5% (inactive)
CCn1c(C(=O)N2CCCC(C(=O)O)C2)cc2sccc21 (stereo not drawn); 103% (inactive)
CCOC(=O)C1C2C=CC3(CN(Cc4ccco4)C(=O)C13)O2 (stereo not drawn); 97% (inactive)

Just for reference, PubChem BioAssay is where these values come from.
